switch fluorescence ratio overview
Tested on: ATP;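 note: ATP exposure 15 min at 22 °C before imaging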
run description: switch fluorescence ratio, 500 uM ATP over buffer (Cy3 cluster intensity, sum of 5 cycles each) (fold (ratio)); higher = stronger signal-on switching upon ATP binding; sequences stand for … in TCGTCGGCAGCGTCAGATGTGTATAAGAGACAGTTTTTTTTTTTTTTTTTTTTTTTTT…TC
condition label: aptamer strand: ATP DNA aptamer (quencher-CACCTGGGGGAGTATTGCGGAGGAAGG + anchor), 100 nM annealed; ATP concentration: 500 uM
experimental readout: switch fluorescence ratio

- TAAATAAATT: 1.01
- ATGTAACATG: 1
- TGCGACATGT: 0.969
- TCGTAAAGGG: 1.01
- AGTGTGGGGT: 0.979
- CCAAAGAATT: 1.03
- ATTGTATCAG: 0.983
- TCAATTTTGC: 1.02
- TGTGTTAGAG: 1.01
- GGGCACAGCA: 0.975
- AAAGATAATT: 0.982
- CGAGGTAGCT: 1
- CGTTTTTTAG: 0.99
- GGAGCGGACG: 1
- TAGGGGAGAA: 1.01
- GCTCCAATTT: 1.07
- TTGGCTACAA: 0.985
- AATGTGGTTG: 0.997
- AAGTTACGT: 1.06
- CCAGAGGGTG: 1.45
- TGTAGGTTCT: 1.06
- GTCGTAGTAC: 1.2
- GGTAGCAGCG: 1.05
- ATAAAAATGG: 1
- TTTTAGACAG: 1.01
- CACAATAGAT: 1.02
- CGGGATGGAG: 0.988
- TGAGCCATCG: 0.987
- CTGTGGCTGG: 0.98
- CGACGGGCAG: 1.01
- ATATCGGCGT: 1.55
- TAGTTTAGGT: 0.996
- TCCGGGTCTG: 1.03
- AGTTCGGATG: 1
- TTGTTATCGG: 1.04
- TTTTAATAGC: 1
- CAAACGCCCG: 0.997
- GGAGGGGGCA: 0.965
- TTTTTGTAGA: 1.01
- TCAGTTGACT: 1.01
- ATAAAAATTT: 1
- CGGGGTTTGG: 0.999
- CAAAGGACCT: 1.14
